biological target: Leucine-rich repeat serine/threonine-protein kinase 2 (Homo sapiens, UniProt Q5S007); assay: Inhibition of full length wild-type LRRK2 (unknown origin) using biotinylated ezrin/radaxin/meosin peptide as substrate measured after 1 hr
Sequence (Q5S007 whole entry): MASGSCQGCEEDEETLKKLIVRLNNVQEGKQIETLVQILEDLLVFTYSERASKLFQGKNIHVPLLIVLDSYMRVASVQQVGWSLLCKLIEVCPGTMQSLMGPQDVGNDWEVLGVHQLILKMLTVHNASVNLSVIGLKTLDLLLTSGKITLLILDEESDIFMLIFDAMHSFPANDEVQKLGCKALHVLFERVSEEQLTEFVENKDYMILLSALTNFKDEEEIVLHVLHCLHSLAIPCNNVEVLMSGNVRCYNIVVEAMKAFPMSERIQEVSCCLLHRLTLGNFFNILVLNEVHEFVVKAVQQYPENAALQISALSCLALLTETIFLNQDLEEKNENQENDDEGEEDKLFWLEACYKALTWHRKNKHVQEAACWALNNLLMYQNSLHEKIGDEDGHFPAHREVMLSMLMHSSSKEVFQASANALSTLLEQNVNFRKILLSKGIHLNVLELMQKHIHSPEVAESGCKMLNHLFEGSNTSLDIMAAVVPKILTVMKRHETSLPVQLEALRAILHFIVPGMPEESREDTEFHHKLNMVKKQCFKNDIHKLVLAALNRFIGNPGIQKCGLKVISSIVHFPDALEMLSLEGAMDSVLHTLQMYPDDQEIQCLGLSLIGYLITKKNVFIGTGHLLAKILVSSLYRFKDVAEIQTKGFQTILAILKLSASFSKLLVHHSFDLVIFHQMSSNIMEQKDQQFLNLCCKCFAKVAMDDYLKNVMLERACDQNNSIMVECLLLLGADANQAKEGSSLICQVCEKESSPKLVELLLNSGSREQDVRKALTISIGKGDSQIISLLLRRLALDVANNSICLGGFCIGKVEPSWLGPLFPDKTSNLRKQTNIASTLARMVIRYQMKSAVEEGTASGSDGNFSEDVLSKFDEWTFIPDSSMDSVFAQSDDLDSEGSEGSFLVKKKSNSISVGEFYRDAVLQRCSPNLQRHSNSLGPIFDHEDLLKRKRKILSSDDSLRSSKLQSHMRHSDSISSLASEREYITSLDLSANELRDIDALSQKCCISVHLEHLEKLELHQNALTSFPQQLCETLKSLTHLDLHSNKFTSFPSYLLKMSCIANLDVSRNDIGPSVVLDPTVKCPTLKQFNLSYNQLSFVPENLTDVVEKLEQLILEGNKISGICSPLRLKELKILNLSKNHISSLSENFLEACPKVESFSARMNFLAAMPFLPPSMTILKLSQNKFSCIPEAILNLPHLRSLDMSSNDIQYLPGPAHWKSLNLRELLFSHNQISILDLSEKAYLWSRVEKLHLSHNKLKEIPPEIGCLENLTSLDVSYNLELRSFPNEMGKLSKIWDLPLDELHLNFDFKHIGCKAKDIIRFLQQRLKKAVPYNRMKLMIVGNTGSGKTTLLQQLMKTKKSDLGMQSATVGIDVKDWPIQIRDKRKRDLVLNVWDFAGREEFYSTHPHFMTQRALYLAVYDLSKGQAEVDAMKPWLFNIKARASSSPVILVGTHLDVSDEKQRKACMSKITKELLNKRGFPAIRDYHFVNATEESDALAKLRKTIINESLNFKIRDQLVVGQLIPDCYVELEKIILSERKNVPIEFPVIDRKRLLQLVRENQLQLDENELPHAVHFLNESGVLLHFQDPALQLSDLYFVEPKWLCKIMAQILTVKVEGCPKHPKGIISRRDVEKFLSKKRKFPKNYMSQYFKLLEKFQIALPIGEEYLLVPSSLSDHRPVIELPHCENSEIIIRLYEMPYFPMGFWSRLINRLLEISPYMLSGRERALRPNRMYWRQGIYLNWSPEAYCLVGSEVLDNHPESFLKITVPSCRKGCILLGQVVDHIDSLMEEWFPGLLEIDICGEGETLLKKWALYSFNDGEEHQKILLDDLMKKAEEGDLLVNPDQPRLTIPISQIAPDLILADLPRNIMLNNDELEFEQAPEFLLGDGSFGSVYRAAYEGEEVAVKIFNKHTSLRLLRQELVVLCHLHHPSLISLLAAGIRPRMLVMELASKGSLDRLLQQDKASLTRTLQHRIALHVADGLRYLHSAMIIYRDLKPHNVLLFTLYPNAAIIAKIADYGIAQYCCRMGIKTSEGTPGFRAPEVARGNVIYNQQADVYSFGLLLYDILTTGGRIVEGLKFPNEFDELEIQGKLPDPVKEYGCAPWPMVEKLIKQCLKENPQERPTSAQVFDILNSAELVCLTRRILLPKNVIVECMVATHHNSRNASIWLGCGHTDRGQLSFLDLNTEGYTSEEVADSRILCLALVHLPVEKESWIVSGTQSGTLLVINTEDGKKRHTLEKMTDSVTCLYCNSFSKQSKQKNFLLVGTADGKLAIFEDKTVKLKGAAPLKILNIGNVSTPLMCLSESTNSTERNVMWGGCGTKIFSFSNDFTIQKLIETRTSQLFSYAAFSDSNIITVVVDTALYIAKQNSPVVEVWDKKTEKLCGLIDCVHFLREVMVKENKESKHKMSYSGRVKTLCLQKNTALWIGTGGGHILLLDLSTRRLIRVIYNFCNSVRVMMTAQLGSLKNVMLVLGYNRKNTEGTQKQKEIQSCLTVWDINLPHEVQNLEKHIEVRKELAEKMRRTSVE
measurement.label: pKi
// pKi is dimensionless: -log10 of concentration (M)

// returns reported pKi for input O=c1[nH]ccc2nc(N3CCC(O)CC3)nc(Nc3cccc(C(F)(F)F)c3)c12
7.27

====

// endpoint pIC50 / system Leucine-rich repeat serine/threonine-protein kinase 2 (Homo sapiens, UniProt Q5S007)
// field semantics: pIC50 = negative decimal log of concentration (mol/L)

Given the compound Cc1ccccc1Nc1nc2ccc(-c3cc(C)c(O)c(C)c3)cn2n1 , what is its reported pIC50?
8.00

Endpoint output: pIC50 of CCn1c(NC(=O)c2ccnc(-n3ccnc3)c2)nc2ccccc21 . Value?
6.46

If you can, please state the reported pIC50 value of c1cc(-c2n[nH]c3ccnc(OC4CCOCC4)c23)cc(N2CCCC2)n1 .
8.52

I would be grateful if you could share the reported pIC50 for COc1cc(N2CCOCC2)ccc1Nc1ncc(F)c(Nc2ccccc2NS(C)(=O)=O)n1 .
8.89

====

biological target: Leucine-rich repeat serine/threonine-protein kinase 2 (Homo sapiens, UniProt Q5S007, G2019S); experiment: Inhibition of LRRK2 G2019S mutant (unknown origin) using biotinylated ezrin/radaxin/meosin peptide as substrate measured after 1 hr
Sequence (Q5S007 whole entry G2019S): as the sequence (Q5S007 whole entry) above, with G2019S counted along it
measurement.label: IC50 (nM)
# number only, unit nM dropped from output

Worked cases, IC50 given:
CCOc1ccc(Nc2nc(N3CCOCC3)c3nc[nH]c3n2)cc1 : 355
NC(=O)c1ccc(Nc2nc(N3CCOCC3)c3ccccc3n2)cc1 : 633
COc1cccc(Nc2nc(NCCO)c3nc[nH]c3n2)c1 : 48
COc1cc(N2CCOCC2)ccc1Nc1ncc(F)c(Nc2ccccc2NS(C)(=O)=O)n1 : 1.9

Alright, here's another compound for you.
Look up IC50 for this compound: CCn1c(NC(=O)c2ccnc(-n3ccnc3)c2)nc2ccccc21
274
